TARGET_DESC: CDK2 (Homo sapiens)
Construct: The expressed protein is approximately 34 kDa in size
PROTOCOL_NOTES: CDK2 in vitro kinase assay (cyclin A or E-dependent), 33P-ATP SPA
PROTOCOL_CONDITIONS: recombinant cyclin-CDK2 complex (cyclin A or E, not specified); biotinylated Histone H1 peptide substrate; 1 hour at room temperature; read-out: CDK 2 IC50
EXPERIMENTAL_ENDPOINT: IC50
Answer format reminder: number followed by unit.

CCc1cnn2c(NCc3ccnnc3)nc(N3CCCC[C@H]3CCO)nc12 | 1.2 nM
CCc1cnn2c(NCc3cncnc3)nc(N3CCCC[C@H]3CCO)nc12 | 0.56 nM
CCc1cnn2c(Nc3ccc(S(C)(=O)=O)cc3)nc(N3CCCC[C@H]3CCO)nc12 | 106 nM
Cn1cc(CNc2nc(N3CCCC[C@H]3CCO)nc3c(C4CC4)cnn23)ccc1=O | 3.1 nM
CCc1cnn2c(NCc3ccn(CC)c(=O)c3)nc(N3CCCC[C@H]3CCO)nc12 | 0.52 nM
CCc1cnn2c(NCc3ccc(=O)n(C)c3)nc(N3CCCC[C@H]3CCO)nc12 | 0.48 nM

Please turn your attention to the following entry.
// IC50 lookup, compound = CCc1cnn2c(NCc3cccnc3)nc(N3CCCC[C@H]3CCO)nc12 , result: 0.88 nM
